System: U251 CNS
methodNotes: NCI-60 one-dose screen, 48 h
protocolConditions: 10 µM unless noted
About 83,000 compounds went through this panel and 20% of them were active in at least one assay; those are over-represented in the sample as a whole. Active and inactive are the calls of the source. The calls were made as follows: active = growth percent below 10; inactive = the rest.
Give your call using only these classes: active, inactive

[in] Short answer needed: outcome of this test for CC(NC(=O)Oc1cccc2ccccc12)c1ccccc1 (configuration not stated) ?
[out] inactive

[in] Short answer needed: outcome of this test for O=C1/C=C/[C@@H](O)[C@@H]2C[C@@H](O)C[C@H]2/C=C/CCC[C@H](CO)O1 ?
[out] inactive

[in] Short answer needed: outcome of this test for C=C1CCC2C(C)(COC(=O)CC)C(OC(=O)CC)CCC2(C)C1C/C=C1/C(=O)OCC1OC(=O)CC (configuration not stated) ?
[out] active

[in] Short answer needed: outcome of this test for COc1cccc(C2=NN(C(C)=O)C(c3cc(OC)c(OC)c(OC)c3)C2)c1 (configuration not stated) ?
[out] inactive

[in] Short answer needed: outcome of this test for O=C(NN1C(=O)c2cc(C(=O)O)c(C(=O)O)cc2C1=O)c1ccncc1 ?
[out] inactive

[in] Short answer needed: outcome of this test for FC(F)(F)c1ccc(-c2cnc(-c3nn[nH]n3)nc2NC2CCCCCC2)cc1 ?
[out] inactive

[in] Short answer needed: outcome of this test for O=C(O)CCNS(=O)(=O)c1ccc(-c2ccccc2)cc1 ?
[out] inactive

----------
Tested on: CCRF-CEM leukemia
methodNotes: NCI-60 one-dose screen, 48 h
protocolConditions: 10 µM unless noted
Compounds without any hit were thinned out: in the full panel of roughly 83,000, 20% have a hit. Active and inactive are the calls of the source. Rule for the calls: active = growth percent below 10; inactive = the rest.
Give your call using only these classes: active, inactive

For orientation, consider the following solved cases.
• Cc1sc2nc(NCc3ccccc3)[nH]c(=O)c2c1C = inactive
• COc1ccccc1NC(=O)c1sc2nc3c(cc2c1N)C(=O)CCC3 = inactive
• c1ccc(-c2n(Cc3ccc4ccccc4c3)cc[n+]2Cc2ccc3ccccc3c2)cc1 = active

[in] Short answer needed: outcome of this test for C[C@]12CC[C@H](O)CC1=CC[C@@H]1[C@@H]2CC[C@]2(C)C(c3cccnc3)=CC[C@@H]12 ?
[out] inactive

----------
System: U251 CNS
methodNotes: NCI-60 one-dose screen, 48 h (100 = growth as untreated, 0 = no growth, -100 = all killed)
protocolConditions: 10 µM unless noted
Description: Growth inhibition of the U251 human tumor cell line is measured as a screen for anti-cancer activity. Cells are grown in 96 well plates and exposed to the test compound for 48 hours. Compounds are tested at a single concentration, which is 10^-5 M for most compounds. The reported endpoint is percent growth (GI% or GIPRCNT), where numbers from 0 - 100% represent growth inhibition, and numbers from -100% - 0 represent cell death. For example, a value of 40 represents 60% growth inhibition. […]
This is part of a sample that, as a whole, favours compounds with a hit. Of some 83,000 tested, about 20% had one in any assay. Calls of active or inactive are those of the source. How the source made its calls: active means growth percent below 10; inactive means the rest.
Below, each of the compounds is paired with its reported growth value.

Below, 2 compounds whose answers are already recorded.
- COc1cccc2c1C(=O)c1c(O)c3c(c(O)c1C2=O)C[C@@](O)(C(C)=O)C[C@@H]3O[C@H]1C[C@H](N)[C@H](O)[C@H](C)O1: 0.281% (active)
- O=C(Nc1nc2c(C(F)(F)F)cccc2s1)c1cc(Cl)ccc1O: 3.11% (active)

[in] Retrieve growth on U251 CNS; query CC(=O)Nc1ccc(C(=O)COc2ccc(/C=C3\CCc4ccccc4C3=O)cc2)cc1
[out] 98.6% (inactive)

[in] Retrieve growth on U251 CNS; query Nc1ccn(C2O[C@H](CO)[C@@H](O)[C@@H]2O)c(=O)n1 (stereo not given in full)
[out] 40% (inactive)

[in] Retrieve growth on U251 CNS; query Cc1ccc(S(=O)(=O)NCCN2c3nc4ccccc4cc3Sc3cc4ccccc4nc32)cc1
[out] 34.4% (inactive)

[in] Retrieve growth on U251 CNS; query CCNCCCn1c2c(c3ccc(F)cc3c1=O)C(=O)c1cc(OC)cnc1-2
[out] -25.8% (active)

[in] Retrieve growth on U251 CNS; query Cc1cc(-c2ccccc2)cc(C)n1
[out] 103% (inactive)

----------
Tested on: MALME-3M melanoma
methodNotes: NCI-60 one-dose screen, 48 h
protocolConditions: 10 µM unless noted
Procedure: Cells are grown in 96 well plates and exposed to the test compound for 48 hours. Compounds are tested at a single concentration, which is 10^-5 M for most compounds. The reported endpoint is percent growth (GI% or GIPRCNT), where numbers from 0 - 100% represent growth inhibition, and numbers from -100% - 0 represent cell death. For example, a value of 40 represents 60% growth inhibition. A value of 0 means no net growth occurred over the course of the experiment. […]
This is part of a sample that, as a whole, favours compounds with a hit. Of some 83,000 tested, about 20% had one in any assay. Active and inactive are the calls of the source. The calls were made as follows: active = growth percent below 10; inactive = the rest.
Give your call using only these classes: 1 (active), -1 (inactive)

[in] Short answer needed: outcome of this test for COc1cccc(/C=N/Nc2nc3ccccc3s2)c1OC ?
[out] -1

[in] Short answer needed: outcome of this test for O=c1[nH]c(SCc2ccccc2)nc2nc(Nc3ccc(NC(=S)Nc4ccccc4)cc3)nc(-c3ccc(O)cc3O)c12 ?
[out] -1

[in] Short answer needed: outcome of this test for COC(=O)c1cc2oc(/C=N\NC(=O)c3cc4oc(C)c(C)c4[nH]3)cc2[nH]1 ?
[out] -1

[in] Short answer needed: outcome of this test for CN1CCC[C@@H]1CCO[C@](C)(c1ccccc1)c1ccc(Cl)cc1 ?
[out] -1

----------
System: NCI-H460 lung
methodNotes: NCI-60 one-dose screen, 48 h (100 = growth as untreated, 0 = no growth, -100 = all killed)
protocolConditions: 10 µM unless noted
The panel holds about 83,000 compounds, 20% with a hit somewhere; the sample as a whole holds those more often. Activity calls are given as the source filed them. Rule for the calls: active = growth percent below 10; inactive = the rest.
measuredQuantity: growth

Below, 3 compounds whose answers are already recorded.
• CNCCCn1c2c(c3ccc(F)cc3c1=O)C(=O)c1cc(OC)cnc1-2 = -37.6% (active)
• Cc1sc2nc3c4ccccc4c(NCCCN(C)C)nn3c(=O)c2c1C = 23.6% (inactive)
• [N-]=[N+]=NCc1cccc(/C(O)=C/C(=O)C(=O)O)c1 = 104% (inactive)

[in] Find the measured growth of FCc1ncc(-c2ccc(C(F)(F)F)cc2)c(NC2CCCCCC2)n1 and report it.
[out] -28.9% [100 µM] (active)

[in] Find the measured growth of Cc1ccc(S(=O)(=O)NCCN2c3nc4ccccc4cc3Sc3cc4ccccc4nc32)cc1 and report it.
[out] 70.8% (inactive)

[in] Find the measured growth of CCSc1ncc(Br)c(Sc2nc(N)nc3nc[nH]c23)n1 and report it.
[out] 46.6% (inactive)

[in] Find the measured growth of O=c1[nH]c(SCc2ccccc2)nc2nc(Nc3ccc(NC(=S)Nc4ccccc4)cc3)nc(-c3ccc(O)cc3O)c12 and report it.
[out] 103% (inactive)

[in] Find the measured growth of O=C1C=CC(=O)N1c1ccccn1 and report it.
[out] 106% (inactive)

[in] Find the measured growth of OCc1n(Cc2ccc3ccccc3c2)cc[n+]1Cc1ccc2ccccc2c1 and report it.
[out] 53.1% (inactive)

[in] Find the measured growth of CCOC(=O)c1sc(NC(=O)COc2ccc(/C=C3\CCc4cc(OC)ccc4C3=O)cc2)nc1C and report it.
[out] 111% (inactive)

[in] Find the measured growth of CCSCC1CC(O)(c2ccccc2)C(c2ccccc2)C(c2ccc(Cl)cc2)O1 (stereo unspecified) and report it.
[out] -45.8% (active)

[in] Find the measured growth of C=C(CN1CCc2c([nH]c3ccccc23)C1)c1ccc(C(=O)Nc2ccon2)cc1 and report it.
[out] 101% (inactive)

[in] Find the measured growth of CCOc1cc(/C=C/C(=O)C(C(=O)/C=C/c2ccc(OC(=O)CNc3nnc(C)s3)c(OCC)c2)C(=O)CNc2nnc(C)s2)ccc1OC(=O)CNc1nnc(C)s1 and report it.
[out] -46.8% (active)

[in] Find the measured growth of COc1cc2c(cc1OC)C(=O)/C(=C/c1cccc(OCC(=O)c3ccccc3)c1)C2 and report it.
[out] 90.4% (inactive)

[in] Find the measured growth of BrC1CC(Br)c2c1c1c(c3c2C(Br)CC3Br)C(Br)CC1Br (stereo unspecified) and report it.
[out] 93.4% (inactive)

[in] Find the measured growth of Cc1n(Cc2ccc3ccccc3c2)c2ccccc2[n+]1Cc1ccc2ccccc2c1 and report it.
[out] -73.9% (active)

[in] Find the measured growth of CCn1cnc(C[C@H](NC(=O)[C@H](CCCCNC(=O)Nc2cc(C(F)(F)F)cc(C(F)(F)F)c2)NC(=O)Nc2cc(C(F)(F)F)cc(C(F)(F)F)c2)C(=O)OC)c1 and report it.
[out] -41.1% [100 µM] (active)

[in] Find the measured growth of O=c1ncc(-c2ccc(C(F)(F)F)cc2)c(NC2CCCCCC2)[nH]1 and report it.
[out] 55.1% (inactive)

[in] Find the measured growth of O=C(Nc1nc2ccc(OC(F)(F)F)cc2s1)c1ccc(F)cc1 and report it.
[out] -13.1% (active)

[in] Find the measured growth of c1ccc(Nc2ccc(Nc3nc(-c4ccccc4)nc4ccccc34)cc2)cc1 and report it.
[out] 83.4% (inactive)

[in] Find the measured growth of CN1CCN(CCCCCN=c2cc3c(=O)n(CCCCCN4CCN(C)CC4)c(=O)c4c(NCCCCCN5CCN(C)CC5)cc5c(O)n(CCCCCN6CCN(C)CC6)c(=O)c2c5c4-3)CC1 and report it.
[out] 5.16% (active)

[in] Find the measured growth of COC(=O)[C@H](Cc1cn(C)cn1)NC(=O)[C@H](C)NC(=O)Nc1cc(C(F)(F)F)cc(C(F)(F)F)c1 and report it.
[out] -34.3% [100 µM] (active)

[in] Find the measured growth of N#Cc1c(-c2ccccc2)cc(-c2ccccc2)n(CCCC(=O)O)c1=O and report it.
[out] 103% (inactive)

[in] Find the measured growth of C[C@@H]1[C@H]2[C@H](C=C3[C@@H]4CC[C@H]5Cc6nc7c(nc6C[C@]5(C)[C@H]4C[C@@H](O)[C@@]32C)C[C@@H]2CC[C@H]3C4=C[C@@H]5O[C@@]6(CC[C@](C)(CO)O6)[C@@H](C)[C@@]5(O)[C@@]4(C)[C@H](O)C[C@@H]3[C@@]2(C)C7)O[C@]12CCC(C)(C)O2 and report it.
[out] 0.313% (active)

[in] Find the measured growth of COc1cnc2c(c1)C(=O)c1c-2n(CCCNC(C)C)c(=O)c2cc(F)ccc12 and report it.
[out] -32% (active)

[in] Find the measured growth of Cn1cc(NC(=O)Nc2cc(C(=O)O)n(C)c2)cc1C(=O)O and report it.
[out] 120% (inactive)

[in] Find the measured growth of Cc1n(Cc2ccc3ccccc3c2)cc[n+]1Cc1ccc2ccccc2c1 and report it.
[out] 9.12% (active)

[in] Find the measured growth of C[C@H]1O[C@@H](O[C@H]2[C@@H](O)C[C@H](O[C@H]3[C@@H](O)C[C@H](O[C@H]4CC[C@]5(C)C6CC[C@]7(C)[C@@H](C8=CC(=O)OC8)CC[C@]7(O)C6CC[C@@H]5C4)O[C@@H]3C)O[C@@H]2C)C[C@H](O)[C@@H]1O (stereo partly specified) and report it.
[out] -97.3% (active)

[in] Find the measured growth of COc1ccc(-c2nc3sc4c(c3c(=O)[nH]2)CCCCCC4)cc1 and report it.
[out] 33.2% (inactive)
